Molecular target: cloned human glucagon receptor (Homo sapiens)
Construct: expressed in transfected cells; plasma membrane preparation
Sequence (P47871 26-477): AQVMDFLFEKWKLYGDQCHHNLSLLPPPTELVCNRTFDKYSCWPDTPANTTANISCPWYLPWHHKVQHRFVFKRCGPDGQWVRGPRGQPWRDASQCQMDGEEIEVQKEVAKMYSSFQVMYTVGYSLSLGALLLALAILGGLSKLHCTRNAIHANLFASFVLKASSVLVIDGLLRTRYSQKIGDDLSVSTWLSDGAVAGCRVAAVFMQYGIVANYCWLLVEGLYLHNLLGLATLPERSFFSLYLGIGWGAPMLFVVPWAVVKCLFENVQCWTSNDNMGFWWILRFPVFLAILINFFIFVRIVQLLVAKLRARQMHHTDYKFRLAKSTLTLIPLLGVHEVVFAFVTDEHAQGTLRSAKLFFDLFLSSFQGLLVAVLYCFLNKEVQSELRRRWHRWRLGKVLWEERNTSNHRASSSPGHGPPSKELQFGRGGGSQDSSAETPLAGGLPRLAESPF
Assay: Glucagon Binding Assay (II)
Conditions: plasma membranes of BHK cells expressing the receptor; read-out: Glu Bd Assay (II) IC50
quantity_kind: pIC50
Hey, just a heads up that pIC50 is the negative log base 10 of the concentration in molar.

A selection of reference data follows.
Input line: Request - read-out pIC50 | tested on cloned human glucagon receptor (Homo sapiens) | molecule CC(C)(C)C1CCC(N(Cc2ccc(OC(F)(F)F)cc2)Cc2ccc(C(=O)NCCC(=O)O)cc2)CC1 (stereo not shown)
Output line: 7.48

Input line: Check C[C@@H](C1CCCCC1)N(Cc1ccc(C(=O)NCCC(=O)O)cc1)C(=O)Nc1ccc2ccccc2c1 too.
Output line: 6.16

Input line: Try this molecule too: O=C(O)CCNC(=O)c1ccc(CN(CCC(c2ccccc2)c2ccccc2)Cc2ccc3c(c2)OCO3)cc1
Output line: 6.08

More entries:
Input line: Hello, I am looking for reported pIC50 with cloned human glucagon receptor (Homo sapiens) for CC(C)(C)c1ccc(CN(Cc2ccc(C(=O)NCCC(=O)O)cc2)C(=O)Nc2cc(Cl)cc(Cl)c2)cc1 . Could you help?
Output line: 6.17

Input line: What do you have for O=C(NCc1nn[nH]n1)c1ccc(CN(Cc2ccc(OC(F)(F)F)cc2)[C@H]2CC[C@@H](C3CCCCC3)CC2)cc1 ?
Output line: 6.82

Input line: For O=C(O)CCNC(=O)c1ccc(CN(C(=O)Nc2ccc(OC(F)(F)F)cc2)C2CC2c2ccccc2)cc1 (stereo not shown) then?
Output line: 6.46

Input line: Input O=C(Nc1nn[nH]n1)c1ccc(CN(Cc2ccc(OC(F)(F)F)cc2)[C@H]2CC[C@@H](C3CCCCC3)CC2)cc1
Output line: 6.78

Values from patent US6875760B2
